Tested on: OAW-42 (Ovarian Carcinoma)
methodNotes: combination Emax (second highest fraction inhibited in the dose matrix, 72 h); higher = more inhibition; extreme values may be limits of the assay
endpoint: combination Emax

Worked examples follow.
COc1nnc2ccc(N3CCC(c4ccc(OCCN5CCN(C)C(=O)[C@H]5C)cc4)CC3)nn12 [AZD5153] + CCN(CCO)CCCOc1ccc2c(Nc3cc(CC(=O)Nc4cccc(F)c4)[nH]n3)ncnc2c1 [AZD2811] (first compound max 1 µM, 7x7, partner max 1 µM) ... 0.459
CC(=O)c1c(C)c2cnc(Nc3ccc(N4CCNCC4)cn3)nc2n(C2CCCC2)c1=O [Palbociclib] + Cn1cnc2c(F)c(Nc3ccc(Br)cc3Cl)c(C(=O)NOCCO)cc21 [Selumetinib] (first compound max 10 µM, 7x7, partner max 10 µM) ... 0.168

Consider now this further compound.
combination Emax for CC(=O)c1c(C)c2cnc(Nc3ccc(N4CCNCC4)cn3)nc2n(C2CCCC2)c1=O [Palbociclib] + CC1(C)CCC(CN2CCN(c3ccc(C(=O)NS(=O)(=O)c4ccc(NCC5CCOCC5)c([N+](=O)[O-])c4)c(Oc4cnc5[nH]ccc5c4)c3)CC2)=C(c2ccc(Cl)cc2)C1 [Venetoclax] (first compound max 10 µM, 7x7, partner max 1 µM) is 0.105
